Tested on: fundus of the stomach (gastric tone)
protocol.summary: Gastric tone measured by an electronic barostat in conscious dogs
Format: in vivo, dog (female beagle)
test.parameters: relaxation of the fundus, 1 hour after I.D. administration, 0.63 mg/kg
observed.property: Maximum change in volume (mean)
Remember to put the unit after the number in your answer.

Which Maximum change in volume (mean) is listed for Cn1c(N2CCN(Cc3cccnc3)CC2)nc2cccnc21 [compound 3] ?
154 mL

Which Maximum change in volume (mean) is listed for Cn1c(N2CCN(Cc3ccccc3)CC2)nc2cccnc21 [compound 11] ?
220 mL

Which Maximum change in volume (mean) is listed for CCCc1nc2c(cc1C)nc(N1CCN(Cc3ccccc3)CC1)n2C [compound 1] ?
237 mL

Which Maximum change in volume (mean) is listed for CN(C)c1ccnc2c1nc(N1CCN(Cc3ccccc3)CC1)n2C [compound 9] ?
185 mL

Continue with the molecule presented below.
Which Maximum change in volume (mean) is listed for Cn1c(N2CCN(Cc3ccc4c(c3)OCO4)CC2)nc2cccnc21 [compound 10] ?
251 mL

====

Recorded melting point by entry
Where a name gives a salt, the structure may show the parent alone.
# value in °C; strip the unit string

Examples with their reported melting point follow.
Which melting point is listed for Cn1c(N2CCNCC2)nc2cccnc21 ?
136

Which melting point is listed for Cn1c(N2CCN(Cc3ccc4c(c3)OCO4)CC2)nc2cccnc21 [Co. No. 10] ?
114

Which melting point is listed for Cn1c(N2CCN(Cc3cccnc3)CC2)nc2cccnc21 (as salt: HCl) (hydrate or solvate) [Co. No. 3] ?
182

Which melting point is listed for Cn1c(N2CCN(Cc3ccccc3)CC2)nc2cccnc21 [Co. No. 11] ?
98

Further cases:
Which melting point is listed for CN(C)c1ccnc2c1nc(N1CCN(Cc3ccccc3)CC1)n2C [Co. No. 9] ?
128
